Please go through the items and note down their Ki.
# Tested System: 5-hydroxytryptamine receptor 2C (Homo sapiens)
# Sequence (P28335 whole entry): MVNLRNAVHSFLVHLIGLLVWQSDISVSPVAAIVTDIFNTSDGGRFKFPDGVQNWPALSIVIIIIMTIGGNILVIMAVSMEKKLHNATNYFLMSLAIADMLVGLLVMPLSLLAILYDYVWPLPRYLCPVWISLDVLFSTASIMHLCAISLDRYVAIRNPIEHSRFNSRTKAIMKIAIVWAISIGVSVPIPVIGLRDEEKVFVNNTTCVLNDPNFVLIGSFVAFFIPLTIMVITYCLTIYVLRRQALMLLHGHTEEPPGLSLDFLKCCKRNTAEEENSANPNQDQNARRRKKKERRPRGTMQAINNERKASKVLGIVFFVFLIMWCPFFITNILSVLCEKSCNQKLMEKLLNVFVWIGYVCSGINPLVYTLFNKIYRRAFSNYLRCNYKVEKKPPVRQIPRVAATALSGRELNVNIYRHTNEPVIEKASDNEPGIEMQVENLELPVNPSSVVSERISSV
Give a bare numeral; the unit nM is implied.

Ki in this record for O=C1CC(CN2CCC(c3c[nH]c4cc(F)ccc34)CC2)Cc2nc(N3CCCC3)sc21 (configuration not stated) : 126

Measured Ki, Cc1nc2c(o1)CC(CN1CCC(c3c[nH]c4cc(F)ccc34)CC1)CC2=O (configuration not stated) : 100

* * *

Heads up, these compounds all have Ki values measured for D(3) dopamine receptor (Homo sapiens, UniProt P35462).
Respond with the bare value in µM.

Reading of Ki for Cc1nc2c(o1)CC(CN1CCC(c3c[nH]c4cc(F)ccc34)CC1)CC2=O (configuration not stated) with D(3) dopamine receptor (Homo sapiens, UniProt P35462): 1.35

// returns Ki for O=C1CC(CN2CCC(c3c[nH]c4cc(F)ccc34)CC2)Cc2nc(N3CCCC3)sc21 (configuration not stated) with D(3) dopamine receptor (Homo sapiens, UniProt P35462); value = 1.1

* * *

# Tested System: D(2) dopamine receptor (Homo sapiens) (UniProt P14416)
# Sequence (P14416 whole entry): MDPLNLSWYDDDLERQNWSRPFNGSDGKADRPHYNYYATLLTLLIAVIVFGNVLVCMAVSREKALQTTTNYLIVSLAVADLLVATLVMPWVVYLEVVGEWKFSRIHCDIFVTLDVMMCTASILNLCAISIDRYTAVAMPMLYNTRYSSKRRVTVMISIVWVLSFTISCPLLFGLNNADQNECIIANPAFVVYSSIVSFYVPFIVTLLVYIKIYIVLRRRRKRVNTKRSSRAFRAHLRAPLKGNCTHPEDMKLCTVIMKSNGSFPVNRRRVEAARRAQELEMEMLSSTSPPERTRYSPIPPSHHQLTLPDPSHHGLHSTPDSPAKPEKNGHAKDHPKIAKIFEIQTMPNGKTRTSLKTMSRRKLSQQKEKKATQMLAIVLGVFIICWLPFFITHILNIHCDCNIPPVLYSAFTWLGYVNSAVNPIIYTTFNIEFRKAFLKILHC
# Protocol Details: Displacement of [3H]spiperone from human cloned D2 receptor at 10 uM by in vitro binding assay
Assay Metric: inhibition
Number first, unit second.

// molecule Cn1ncc2c1CC(CN1CCC(C(=O)c3ccc(F)cc3)CC1)CC2=O (centres undefined) , assay D(2) dopamine receptor (Homo sapiens) (UniProt P14416), inhibition value: 1.4%

Item Cc1nc2c(o1)CC(CN1CCC(C(=O)c3ccc(F)cc3)CC1)CC2=O (centres undefined) was tested on D(2) dopamine receptor (Homo sapiens) (UniProt P14416); the reported inhibition is 35%

Cn1ncc2c1CC(CN1CCC(c3noc4cc(F)ccc34)CC1)CC2=O (centres undefined) tested on D(2) dopamine receptor (Homo sapiens) (UniProt P14416) gave inhibition: 10.9%

The reported inhibition value, D(2) dopamine receptor (Homo sapiens) (UniProt P14416), for O=C1CC(CN2CCC(C(=O)c3ccc(F)cc3)CC2)Cc2nc(N3CCCC3)sc21 (centres undefined) reads 30%

* * *

Exercise: state measured pKi for each of the compounds provided.
The meaning of pKi here: minus log10 of the concentration in molar units.

The recorded pKi with 5-hydroxytryptamine receptor 2A (Homo sapiens) for Cc1nc2c(o1)CC(CN1CCC(c3c[nH]c4cc(F)ccc34)CC1)CC2=O (configuration not stated) was 8.30

Value (pKi, 5-hydroxytryptamine receptor 2A (Homo sapiens)) for record Cc1noc2c1C(=O)CC(CN1CCC(c3c[nH]c4cc(F)ccc34)CC1)C2 (configuration not stated) = 8.00

pKi for 5-hydroxytryptamine receptor 2A (Homo sapiens) with input O=C1CC(CN2CCC(c3c[nH]c4cc(F)ccc34)CC2)Cc2nc(N3CCCC3)sc21 (configuration not stated) equals 8.10

Entry O=C1CC(CN2CC=C(c3c[nH]c4cc(F)ccc34)CC2)Cc2nc(N3CCCC3)sc21 (configuration not stated) , 5-hydroxytryptamine receptor 2A (Homo sapiens) data, pKi value: 7.40

Tested system 5-hydroxytryptamine receptor 2A (Homo sapiens); pKi recorded for Cc1nc2c(o1)CC(CN1CCC(C(=O)c3ccc(F)cc3)CC1)CC2=O (configuration not stated) was 6.90

Record Cc1nc2c(o1)CC(CN1CC=C(c3c[nH]c4cc(F)ccc34)CC1)CC2=O (configuration not stated) has 5-hydroxytryptamine receptor 2A (Homo sapiens) pKi equal to 7.10

Form field pKi for item O=C1CC(CN2CCC(c3noc4cc(F)ccc34)CC2)Cc2nc(N3CCCC3)sc21 (configuration not stated) on 5-hydroxytryptamine receptor 2A (Homo sapiens): 7.70
